Biological target: chicken IgY (chicken)
Assay: BLI; Octet, SAX (streptavidin) biosensors; recombinant Fabs against IgY; KD from a kinetic 1:1 model, global fit over multiple concentrations (partial fits averaged for 3 low-affinity Fabs)
Please respond with reported Kd for every item in the list.
The figure you give is taken to be in µM; do not add the unit.

The recorded Kd for entry clone 2.1 Fab TA_28 (Fab, V domains shown) VH: EVQLQESGPSLVKPSQTLSLTCSVTGDSITSGYWNWIRKFPGNKLEYMGYISYSGGTYYNPSLKSRISITRDTSKNQYYLQLNSVTTEDTATYYCARDFDVWGAGTTVTVSS VL: DIVMTQSQKFMSTSVGDRVSVTCKASQNVGTNVAWYQQKPGQSPKALIYSASYRYSGVPDRFTGSGSGTDFTLTISNVQSEDLAEYFCQQYNSYPLTFGSGTKLEIK equals 0.022

Value of Kd reported for the binder clone 2.1 Fab TA_22 (Fab, V domains shown) VH: EVQLQESGPSLVKPSQTLSLTCSVTGDSITSGYWNWIRKFPGNKLEYMGYISYSGSTYYNPSLKSRISITRDTSKNQYYLQLNSVTTEDTATYYCARDFDVWGAGTTVTVSS VL: DIVMTQSQKFMSTSVGDRVSVTCKASQNVGTNVAWYQQKPGQSPKALIYSASYRYSGVPDRFTGSGSGTDFTLTISNVQSEDLAEYFCQQYSSYPLTFGSGTKLEIK is 0.0149

The recorded Kd for clone 2.1 Fab TA_4 (Fab, V domains shown) VH: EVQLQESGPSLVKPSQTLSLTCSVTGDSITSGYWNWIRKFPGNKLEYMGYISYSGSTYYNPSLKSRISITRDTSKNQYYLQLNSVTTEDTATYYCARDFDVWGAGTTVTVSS VL: DIVMTQSQKFMSTSVGDRVSVTCKASQNVGTNVVWYQQKPGQSPKALIYSASYRYSGVPDRFTGSGSGTDFTLTISNVQSEDLAEYFCQQYDSYPLTFGSGTKLEIK is 0.0711

The reported Kd of the binder clone 2.1 Fab, unmutated (Fab, V domains shown) VH: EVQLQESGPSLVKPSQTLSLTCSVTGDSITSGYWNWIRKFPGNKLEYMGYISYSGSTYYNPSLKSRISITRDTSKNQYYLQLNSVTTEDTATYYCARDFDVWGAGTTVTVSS VL: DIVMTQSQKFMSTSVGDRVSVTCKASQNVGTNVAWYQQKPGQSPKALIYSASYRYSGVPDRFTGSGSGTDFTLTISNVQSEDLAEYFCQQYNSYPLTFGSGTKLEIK was 0.026

For this binder ( clone 2.1 Fab CB_02 (clonal burst) (Fab, V domains shown) VH: EVQLQESGPSLVKPSQTLSLTCSVTGDSITSGYWNWIRKFPGNKLEYMGYISYSGSTYYNPSLKSRISITRDTSKNQYYLQLNSVTTEDTATYYCGRDFDVWGAGTTVTVSS VL: DIVMTQSQKFMSTSVGDRVSVTCKASQNVGTNVGWYQQKPGQSPKALIYSASYRYSGVPDRFTGSGSGTDFTLTISNVQSEDLAEYFCQQYNSYPLTFGSGTKLEIK ), measured Kd is 0.000507

Per the records, this binder ( clone 2.1 Fab TA_14 (Fab, V domains shown) VH: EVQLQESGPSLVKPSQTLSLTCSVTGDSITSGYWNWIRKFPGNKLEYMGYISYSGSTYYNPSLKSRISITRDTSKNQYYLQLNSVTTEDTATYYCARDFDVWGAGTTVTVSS VL: DIVMTQSQKFMSTSVGDRVSVTCKASQNVGTNVAWYQQKPGQSPKSLIYSASYRYSGVPDRFTGSGSGTDFTLTISNVQSEDLAEYFCQQYNSYPLTFGSGTKLEIK ) has Kd equal to 0.00625

Recorded result, clone 2.1 Fab TA_19 (Fab, V domains shown) VH: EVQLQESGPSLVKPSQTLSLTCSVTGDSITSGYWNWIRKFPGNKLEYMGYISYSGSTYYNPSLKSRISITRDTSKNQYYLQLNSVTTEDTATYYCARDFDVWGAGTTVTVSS VL: DIVMTQSQKFMSTSVGDRVSVTCKASQNVGTNVGWFQQKPGQSPKSLIYSASYRYSGVPDRFTGSGSGTDFTLTISNVQSEDLAEYFCHQYYSYPLTFGSGTKLEIK , Kd: 0.000261

Kd measured on clone 2.1 Fab L_11 (affinity ladder) (Fab, V domains shown) VH: EVQLQESGPSLVKPSQTLSLTCSVTGDSITSGYWNWIRKFPGNKLEYMGYISYSGSTYYNPSLKSRISITRDTSTNQYYLQLNSVTTEDTATYFCARDFDVWGAGTTVTVSS VL: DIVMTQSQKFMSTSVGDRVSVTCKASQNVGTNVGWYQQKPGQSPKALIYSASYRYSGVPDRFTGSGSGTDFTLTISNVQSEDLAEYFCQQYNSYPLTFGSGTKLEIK = 0.00183

For this binder ( clone 2.1 Fab CB_01 (clonal burst) (Fab, V domains shown) VH: EVQLQESGPSLVKPSQTLSLTCSVTGDSITSGYWNWIRKFPGNKLEYMGYISYSGSTYYNPSLKSRISFTRDTSKNQYYLQLNSVTTEDTATYYCARDFDVWGAGTTVTVSS VL: DIVMTQSQKFMSTSVGDRVSVTCKASQNVGTNVAWSQQKPGQSPKALIYSASYRYSGVPDRFTGSGSGTDFTLTISNVQSEDLAEYFCQQYKSYPLTFGSGTKLEIK ), measured Kd is 0.00377

Lab note: clone 2.1 Fab TA_11 (Fab, V domains shown) VH: EVQLQESGPSLVKPSQTLSLTCSVTGDSITSGYWNWIRKFPGNRLEYMGYISYSGSTYYNPSLKSRISITRDTSKNQYYLQLNSVTTEDTATYYCARDFDVWGAGTTVTVSS VL: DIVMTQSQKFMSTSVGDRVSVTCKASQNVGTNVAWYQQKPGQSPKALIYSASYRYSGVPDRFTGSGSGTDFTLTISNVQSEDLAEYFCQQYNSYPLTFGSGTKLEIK gave Kd of 0.0216

Where these numbers come from: paper PMC13360575
